System: 616215-338-R-J1-PDC tumor spheroids, viability
Experiment: Anticancer human tumor 616215-338-R-J1-PDC patient-derived colon adenocarcinoma cell line growth inhibition [GQUAD]; active = viability on the fitted dose curve at most 10% of control; inactive = the rest
Settings: second compound 1 µM; first compound 3.16 µM; spheroids with HUVEC and MSC
Outcome codes: true = active, false = inactive

{"columns": ["compound", "assigned label"],
 "data": [
  ["CCCS(=O)(=O)Nc1ccc(F)c(C(=O)c2c[nH]c3ncc(-c4ccc(Cl)cc4)cc23)c1F + Cc1cnc(CNC(=O)c2c(=O)c3ccc(N4CCCN(C)CC4)nc3n3c2sc2ccccc23)cn1", "false"],
  ["CC(=O)O[C@H]1C(=O)[C@@]2(C)[C@H]([C@H](OC(=O)c3ccccc3)[C@]3(O)C[C@H](OC(=O)[C@H](O)[C@@H](NC(=O)c4ccccc4)c4ccccc4)C(C)=C1C3(C)C)[C@]1(OC(C)=O)CO[C@@H]1C[C@@H]2O + CN(C)c1ccc(Nc2c3ccc(NC(=O)CCN4CCCC4)cc3nc3cc(NC(=O)CCN4CCCC4)ccc23)cc1", "false"],
  ["COc1ccc([C@@H](O)c2cc(-c3ncnc4cc(N5CCOCC5)ccc34)c(F)cc2Cl)nn1 + Cc1cnc(CNC(=O)c2c(=O)c3ccc(N4CCCN(C)CC4)nc3n3c2sc2ccccc23)cn1", "false"],
  ["CC1COCCN1c1cc(C2(O)CC3CCC(C2)O3)c2cnn(-c3ccn[nH]3)c2n1 (stereo not given) + Cc1cnc(CNC(=O)c2c(=O)c3ccc(N4CCCN(C)CC4)nc3n3c2sc2ccccc23)cn1", "false"],
  ["Nc1ccn(C2OC(CO)C(O)C2(F)F)c(=O)n1 (stereo not given) + CN(C)c1ccc(Nc2c3ccc(NC(=O)CCN4CCCC4)cc3nc3cc(NC(=O)CCN4CCCC4)ccc23)cc1", "false"],
  ["O=C(NO)c1cnc(N2CCN(S(=O)(=O)c3ccc4ccccc4c3)CC2)nc1 + Cc1[nH]c2ccc(F)cc2c1-c1nc2c3cccnc3c3ncccc3c2[nH]1", "true"],
  ["COc1ncnc(C2CC2)c1-c1ncc2cnn(Cc3ccc(-c4nc(C(F)(F)F)cn4C(C)C)cc3)c2n1 + Cc1cnc(CNC(=O)c2c(=O)c3ccc(N4CCCN(C)CC4)nc3n3c2sc2ccccc23)cn1", "false"],
  ["C=CCn1c(=O)c2cnc(Nc3ccc(N4CCN(C)CC4)cc3)nc2n1-c1cccc(C(C)(C)O)n1 + Cc1cnc(CNC(=O)c2c(=O)c3ccc(N4CCCN(C)CC4)nc3n3c2sc2ccccc23)cn1", "false"],
  ["COc1ncnc(C2CC2)c1-c1ncc2cnn(Cc3ccc(-c4nc(C(F)(F)F)cn4C(C)C)cc3)c2n1 + CN(C)c1ccc(Nc2c3ccc(NC(=O)CCN4CCCC4)cc3nc3cc(NC(=O)CCN4CCCC4)ccc23)cc1", "false"],
  ["COc1cccc2c1C(=O)c1c(O)c3c(c(O)c1C2=O)CC(O)(C(=O)CO)CC3OC1CC(N)C(O)C(C)O1 (stereo not given) + CN(C)c1ccc(Nc2c3ccc(NC(=O)CCN4CCCC4)cc3nc3cc(NC(=O)CCN4CCCC4)ccc23)cc1", "false"]
]}

###

Tested on: 616215-338-R-J1-PDC tumor spheroids, viability
Test: Anticancer human tumor 616215-338-R-J1-PDC cell line growth inhibition [GQUAD]; active means viability on the fitted dose curve at most 10% of control; inactive means the rest;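 note: spheroids exposed to agents for 7 days before readout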
Settings: second compound 0.1 µM; first compound 10 µM; spheroids with HUVEC and MSC
Outcome codes: t = active, f = inactive

{"columns": ["compound", "study target", "assigned label"],
 "data": [
  ["CC(=O)O[C@H]1C(=O)[C@@]2(C)[C@H]([C@H](OC(=O)c3ccccc3)[C@]3(O)C[C@H](OC(=O)[C@H](O)[C@@H](NC(=O)c4ccccc4)c4ccccc4)C(C)=C1C3(C)C)[C@]1(OC(C)=O)CO[C@@H]1C[C@@H]2O + Cc1cnc(CNC(=O)c2c(=O)c3ccc(N4CCCN(C)CC4)nc3n3c2sc2ccccc23)cn1", "616215-338-R-J1-PDC tumor spheroids, viability", "f"],
  ["CC(C)(O)C1CCC(Nc2ccc3ncc(-c4cccc(C(F)(F)F)c4)n3n2)CC1 (centres undefined) + Cc1[nH]c2ccc(F)cc2c1-c1nc2c3cccnc3c3ncccc3c2[nH]1", "616215-338-R-J1-PDC tumor spheroids, viability", "t"],
  ["CC(C)(O)C1CCC(Nc2ccc3ncc(-c4cccc(C(F)(F)F)c4)n3n2)CC1 (centres undefined) + CN(C)c1ccc(Nc2c3ccc(NC(=O)CCN4CCCC4)cc3nc3cc(NC(=O)CCN4CCCC4)ccc23)cc1", "616215-338-R-J1-PDC tumor spheroids, viability", "t"],
  ["COc1ccc([C@@H](O)c2cc(-c3ncnc4cc(N5CCOCC5)ccc34)c(F)cc2Cl)nn1 + Cc1[nH]c2ccc(F)cc2c1-c1nc2c3cccnc3c3ncccc3c2[nH]1", "616215-338-R-J1-PDC tumor spheroids, viability", "f"],
  ["CCCS(=O)(=O)Nc1ccc(F)c(C(=O)c2c[nH]c3ncc(-c4ccc(Cl)cc4)cc23)c1F + Cc1[nH]c2ccc(F)cc2c1-c1nc2c3cccnc3c3ncccc3c2[nH]1", "616215-338-R-J1-PDC tumor spheroids, viability", "t"],
  ["CC1COCCN1c1cc(-c2ccnn2C)c2ccnc(-c3ccn[nH]3)c2n1 (centres undefined) + CN(C)c1ccc(Nc2c3ccc(NC(=O)CCN4CCCC4)cc3nc3cc(NC(=O)CCN4CCCC4)ccc23)cc1", "616215-338-R-J1-PDC tumor spheroids, viability", "f"],
  ["COc1cccc2c1C(=O)c1c(O)c3c(c(O)c1C2=O)CC(O)(C(=O)CO)CC3OC1CC(N)C(O)C(C)O1 (centres undefined) + CN(C)c1ccc(Nc2c3ccc(NC(=O)CCN4CCCC4)cc3nc3cc(NC(=O)CCN4CCCC4)ccc23)cc1", "616215-338-R-J1-PDC tumor spheroids, viability", "t"],
  ["CC(=O)O[C@H]1C(=O)[C@@]2(C)[C@H]([C@H](OC(=O)c3ccccc3)[C@]3(O)C[C@H](OC(=O)[C@H](O)[C@@H](NC(=O)c4ccccc4)c4ccccc4)C(C)=C1C3(C)C)[C@]1(OC(C)=O)CO[C@@H]1C[C@@H]2O + CN(C)c1ccc(Nc2c3ccc(NC(=O)CCN4CCCC4)cc3nc3cc(NC(=O)CCN4CCCC4)ccc23)cc1", "616215-338-R-J1-PDC tumor spheroids, viability", "f"],
  ["C#Cc1c(F)ccc2cc(O)cc(-c3ncc4c(N5CC6CCC(C5)N6)nc(OCC56CCCN5CC(F)C6)nc4c3F)c12 (centres undefined) + CN(C)c1ccc(Nc2c3ccc(NC(=O)CCN4CCCC4)cc3nc3cc(NC(=O)CCN4CCCC4)ccc23)cc1", "616215-338-R-J1-PDC tumor spheroids, viability", "f"]
]}
